testName: Toxicity after single administration (acute toxicity, oral)
condition: mouse, in vivo, mice, p.o., death-rate after 7 days, read-out: Acute toxicity LD50 approx.
Procedure: IVA:NMRI (SPF) mice, fasted for 18 hours before treatment with water ad libitum, have been used. The compounds, dissolved or suspended in a 0.2% Tween® 80 aqueous solution, have been administered orally, at constant concentration (10%). According to the death-rate observed after 7 days from treatment, the approximate LD50 values, reported in Table 1, have been interpolated on Probits chart.
Hi there, I'd appreciate the recorded LD50 at 168 h for every entry that follows.

Return LD50 at 168 h for the following compound: O=C(O)c1ccccc1C(=O)NC1CCSC1=O (stereo not shown)
> 4000 mg/kg

Return LD50 at 168 h for the following compound: CC(=O)N[C@@H](CS)C(=O)O [N-acetyl-L-cysteine, N--acetyl-L-cysteine, reference compound]
4400 mg/kg

Return LD50 at 168 h for the following compound: O=C1SCCC1NC(=O)C1C2C=CC(C2)C1C(=O)O (stereo not shown)
> 4000 mg/kg

Return LD50 at 168 h for the following compound: NC(CSCC(=O)O)C(=O)O (stereo not shown) [S-carboxymethyl-cysteine, S--carboxymethyl-cysteine, reference compound]
> 4000 mg/kg
